Biological target: Adrenergic receptor alpha-1 (Rattus norvegicus, UniProt P15823+P23944+P43140)
Assay: Displacement of [3H]prazosin from alpha1 adrenergic receptor in rat cerebral cortex by liquid scintillation counting
Format: tissue-based
Could you please report measured pKi for the items listed next?
Write the number on its own, no unit after it.

Query string: Recorded pKi of COc1ccc(N2CCN(CC(O)CN3CCC(c4ccccc4)(c4ccccc4)C3=O)CC2)cc1.Cl.Cl (centres undefined) , please.
Result string: 5.36

Query string: Can you share its pKi? I mean this compound: Cl.Cl.O=C1N(CC(O)CN2CCN(c3ccccc3C(F)(F)F)CC2)CCC1(c1ccccc1)c1ccccc1 (centres undefined)
Result string: 5.89

Query string: Returns the measured pKi for the input compound. Input: O=C1CCCN1CC(O)CN1CCN(C(c2ccccc2)c2ccccc2)CC1 (centres undefined)
Result string: 6.57

Query string: Entry under review: Cc1ccccc1N1CCN(CC(O)CN2CCC(c3ccccc3)(c3ccccc3)C2=O)CC1.Cl.Cl (centres undefined) . Reported pKi?
Result string: 6.69

Query string: Query: pKi; subject: Cl.Cl.O=C1N(CC(O)CN2CCN(c3ccc(F)cc3)CC2)CCC1(c1ccccc1)c1ccccc1 (centres undefined)
Result string: 5.68

Query string: Item under review: CCOc1ccccc1N1CCN(CC(O)CN2CCC(c3ccccc3)(c3ccccc3)C2=O)CC1.Cl.Cl (centres undefined) . Reported pKi?
Result string: 7.28

Query string: Recorded pKi of COc1ccccc1N1CCN(CC(O)CN2CCC(c3ccccc3)(c3ccccc3)C2=O)CC1.Cl.Cl (centres undefined) , please.
Result string: 6.8

Query string: Data request, read-out pKi, for Cl.Cl.O=C1N(CC(O)CN2CCN(c3ccccc3)CC2)CCC1(c1ccccc1)c1ccccc1 (centres undefined)
Result string: 6.74

Query string: Returns the measured pKi for the input compound. Input: O=C1CCCN1CC(O)CN1CCN(c2ccccc2)CC1 (centres undefined)
Result string: 5.72
